Test system: S180-bearing mice
Experiment: Bio-distribution in tumor-bearing mice
Type: in vivo
Details: S180-bearing mice, tail vein, 60 min
Quantity kind: Heart uptake
Please give the number followed by its unit.

Recorded Heart uptake, per entry:
| Compound | Reading |
| --- | --- |
| O=C(CCCCC[N+]#[C][99Tc-5]([C]#[N+]CCCCCC(=O)NC1C(O)OC(CO)C(O)C1O)([C]#[N+]CCCCCC(=O)NC1C(O)OC(CO)C(O)C1O)([C]#[N+]CCCCCC(=O)NC1C(O)OC(CO)C(O)C1O)([C]#[N+]CCCCCC(=O)NC1C(O)OC(CO)C(O)C1O)[C]#[N+]CCCCCC(=O)NC1C(O)OC(CO)C(O)C1O)NC1C(O)OC(CO)C(O)C1O (stereo not shown) [[^99mTc-(CN5DG)6]^+] | 0.41 ± 0.02 % ID/g |
| O=C(CCC[N+]#[C][99Tc-5]([C]#[N+]CCCC(=O)NC1C(O)OC(CO)C(O)C1O)([C]#[N+]CCCC(=O)NC1C(O)OC(CO)C(O)C1O)([C]#[N+]CCCC(=O)NC1C(O)OC(CO)C(O)C1O)([C]#[N+]CCCC(=O)NC1C(O)OC(CO)C(O)C1O)[C]#[N+]CCCC(=O)NC1C(O)OC(CO)C(O)C1O)NC1C(O)OC(CO)C(O)C1O (stereo not shown) [[^99mTc-(CN3DG)6]^+] | 0.22 ± 0.04 % ID/g |
| O=C(CCCC[N+]#[C][99Tc-5]([C]#[N+]CCCCC(=O)NC1C(O)OC(CO)C(O)C1O)([C]#[N+]CCCCC(=O)NC1C(O)OC(CO)C(O)C1O)([C]#[N+]CCCCC(=O)NC1C(O)OC(CO)C(O)C1O)([C]#[N+]CCCCC(=O)NC1C(O)OC(CO)C(O)C1O)[C]#[N+]CCCCC(=O)NC1C(O)OC(CO)C(O)C1O)NC1C(O)OC(CO)C(O)C1O (stereo not shown) [[^99mTc-(CN4DG)6]^+] | 0.22 ± 0.08 % ID/g |

In: Find the recorded Heart uptake belonging to O=C(CC[N+]#[C][99Tc-5]([C]#[N+]CCC(=O)NC1C(O)OC(CO)C(O)C1O)([C]#[N+]CCC(=O)NC1C(O)OC(CO)C(O)C1O)([C]#[N+]CCC(=O)NC1C(O)OC(CO)C(O)C1O)([C]#[N+]CCC(=O)NC1C(O)OC(CO)C(O)C1O)[C]#[N+]CCC(=O)NC1C(O)OC(CO)C(O)C1O)NC1C(O)OC(CO)C(O)C1O (stereo not shown) [[^99mTc-(CN2DG)6]^+] and report it.
Out: 0.12 ± 0.02 % ID/g

====

Test system: S180-bearing mice
Experiment: Bio-distribution in tumor-bearing mice
Assay type: in vivo
Settings: S180-bearing mice, tail vein, 30 min
Quantity kind: Muscle uptake (% ID/g)
Respond numerically; units are % ID/g and should not be typed.

In: Entry O=C(CCCC[N+]#[C][99Tc-5]([C]#[N+]CCCCC(=O)NC1C(O)OC(CO)C(O)C1O)([C]#[N+]CCCCC(=O)NC1C(O)OC(CO)C(O)C1O)([C]#[N+]CCCCC(=O)NC1C(O)OC(CO)C(O)C1O)([C]#[N+]CCCCC(=O)NC1C(O)OC(CO)C(O)C1O)[C]#[N+]CCCCC(=O)NC1C(O)OC(CO)C(O)C1O)NC1C(O)OC(CO)C(O)C1O (stereo not shown) [[^99mTc-(CN4DG)6]^+] : reported Muscle uptake = ?
Out: 0.57

In: May I ask what Muscle uptake has been recorded for O=C(CC[N+]#[C][99Tc-5]([C]#[N+]CCC(=O)NC1C(O)OC(CO)C(O)C1O)([C]#[N+]CCC(=O)NC1C(O)OC(CO)C(O)C1O)([C]#[N+]CCC(=O)NC1C(O)OC(CO)C(O)C1O)([C]#[N+]CCC(=O)NC1C(O)OC(CO)C(O)C1O)[C]#[N+]CCC(=O)NC1C(O)OC(CO)C(O)C1O)NC1C(O)OC(CO)C(O)C1O (stereo not shown) [[^99mTc-(CN2DG)6]^+] ?
Out: 0.27

In: Entry under review: O=C(CCC[N+]#[C][99Tc-5]([C]#[N+]CCCC(=O)NC1C(O)OC(CO)C(O)C1O)([C]#[N+]CCCC(=O)NC1C(O)OC(CO)C(O)C1O)([C]#[N+]CCCC(=O)NC1C(O)OC(CO)C(O)C1O)([C]#[N+]CCCC(=O)NC1C(O)OC(CO)C(O)C1O)[C]#[N+]CCCC(=O)NC1C(O)OC(CO)C(O)C1O)NC1C(O)OC(CO)C(O)C1O (stereo not shown) [[^99mTc-(CN3DG)6]^+] . Reported Muscle uptake?
Out: 0.37

In: Returns the measured Muscle uptake for the input compound. Input: O=C(CCCCC[N+]#[C][99Tc-5]([C]#[N+]CCCCCC(=O)NC1C(O)OC(CO)C(O)C1O)([C]#[N+]CCCCCC(=O)NC1C(O)OC(CO)C(O)C1O)([C]#[N+]CCCCCC(=O)NC1C(O)OC(CO)C(O)C1O)([C]#[N+]CCCCCC(=O)NC1C(O)OC(CO)C(O)C1O)[C]#[N+]CCCCCC(=O)NC1C(O)OC(CO)C(O)C1O)NC1C(O)OC(CO)C(O)C1O (stereo not shown) [[^99mTc-(CN5DG)6]^+]
Out: 0.46
